- System: CCRF-CEM
- Experiment Summary: NCI tumour cell line growth inhibition, 48 h
Calls of active or inactive are those of the source. No stated cut-off is given here; in the data, active = GI50 up to about 1.1 µM and inactive = higher.
Assay Endpoint: GI50

CCOC(=O)/C(=C/NC(=S)Nc1c(CC)cccc1C(C)(C)C)C(=O)c1ccccc1 = > 100 µM (inactive)

-- ask Form field - read-out: GI50; system: CCRF-CEM; submitted item: CCOC(=O)c1cc2c([nH]1)C(=O)CC1=C2CCN1Cc1ccccc1
-- reply 4.43 µM (inactive)

-- ask Form field - read-out: GI50; system: CCRF-CEM; submitted item: O=C1CCc2cc3c(cc21)CC1(Cc2ccccc2C1)C3
-- reply 2.98 µM (inactive)

-- ask Form field - read-out: GI50; system: CCRF-CEM; submitted item: CC(=O)Nc1ncc2c(n1)-c1ccccc1OC2
-- reply > 100 µM (inactive)

-- ask Form field - read-out: GI50; system: CCRF-CEM; submitted item: COc1nc2ccc(Cl)c(C(O)c3ccccc3)c2nc1OC (stereo unspecified)
-- reply 12.6 µM (inactive)

-- ask Form field - read-out: GI50; system: CCRF-CEM; submitted item: CN(C)c1ccc(/C=N\NC(=O)CSCC(=O)N/N=C/c2ccc(N(C)C)cc2)cc1
-- reply 60.5 µM (inactive)
